Some compounds, each annotated with its measured SGPT Increase - Index Value.
tested on: Hepatotoxicity; assay: FDA HLAED, serum glutamic pyruvic transaminase (SGPT) increase; settings: human
quantity-kind: SGPT Increase - Index Value

- O=C(O)c1cc(/N=N/c2ccc(S(=O)(=O)Nc3ccccn3)cc2)ccc1O: 4
- CCc1c2c(nc3ccc(OC(=O)N4CCC(N5CCCCC5)CC4)cc13)-c1cc3c(c(=O)n1C2)COC(=O)[C@]3(O)CC: 6.1
- Clc1ccc(COC(Cn2ccnc2)c2ccc(Cl)cc2Cl)cc1 (centres undefined): 0
- CCN(CC)CCOc1ccc(/C(=C(/Cl)c2ccccc2)c2ccccc2)cc1: 25

----------
tested on: Hepatotoxicity; assay: FDA HLAED, serum glutamic pyruvic transaminase (SGPT) increase; details: human
quantity-kind: SGPT Increase - Activity Score

- CN(C)CC/C=C1/c2ccccc2COc2ccc(CC(=O)O)cc21: Inactive
- COc1cc([C@@H]2c3cc4c(cc3[C@@H](O[C@@H]3O[C@@H]5CO[C@@H](C)O[C@H]5[C@H](O)[C@H]3O)[C@H]3COC(=O)[C@H]23)OCO4)cc(OC)c1O [ETOPOSIDE]: Inactive
- CC1(C)S[C@@H]2[C@H](NC(=O)C3(N)CCCCC3)C(=O)N2[C@H]1C(=O)O: Inactive
- CCC1(c2ccc(N)cc2)CCC(=O)NC1=O (configuration not stated) [AMINOGLUTETHIMIDE]: Inactive
- NCCCC(O)(P(=O)(O)O)P(=O)(O)O: Inactive
- CC(=O)OCC1=C(C(=O)O)N2C(=O)[C@@H](NC(=O)CSc3ccncc3)[C@H]2SC1: Inactive
- CCC(=O)OCC(=O)[C@@]1(OC(=O)CC)[C@H](C)C[C@H]2[C@H]3[C@H]([C@@H](O)C[C@@]21C)[C@@]1(C)C=CC(=O)C=C1C[C@H]3Cl [ALCLOMETASONE DIPROPIONATE]: Inactive
- COc1ccc(C(CN(C)C)C2(O)CCCCC2)cc1 (configuration not stated): Inactive
- CCC(C)n1ncn(-c2ccc(N3CCN(c4ccc(OCC5COC(Cn6cncn6)(c6ccc(Cl)cc6Cl)O5)cc4)CC3)cc2)c1=O (configuration not stated): Active
- CNCCCC12CCC(c3ccccc31)c1ccccc12: Inactive
- C[C@]12CC[C@@H]3c4ccc(OC(=O)N(CCCl)CCCl)cc4CC[C@H]3[C@@H]1CC[C@@H]2O: Inactive
- COc1c(C)c2c(c(O)c1C/C=C(\C)CCC(=O)O)C(=O)OC2: Active
- C=C1CC[C@@]2(O)[C@H]3Cc4ccc(O)c5c4[C@@]2(CCN3CC2CC2)[C@H]1O5: Inactive
- Nc1nc2c(ncn2CCC(CO)CO)c(=O)[nH]1: Inactive
- C[C@@H](O)[C@H]1C(=O)N2C(C(=O)O)=C(S[C@@H]3CN[C@H](C(=O)N(C)C)C3)[C@H](C)[C@H]12: Active
- CN(Cc1cnc2nc(N)nc(N)c2n1)c1ccc(C(=O)N[C@@H](CCC(=O)O)C(=O)O)cc1 [METHOTREXATE]: Active
- CN1CCN2c3ncccc3Cc3ccccc3C2C1 (configuration not stated): Active

----------
test system: Hepatotoxicity; test: FDA HLAED, alkaline phosphatase increase; details: human
quantity-kind: Alkaline Phosphatase Increase - Number of Reports

* CNC(=C[N+](=O)[O-])NCCSCc1csc(CN(C)C)n1 [NIZATIDINE] | >= 4
* Clc1ccc(CCC(Cn2ccnc2)Sc2c(Cl)cccc2Cl)cc1 (centres undefined) [BUTOCONAZOLE] | < 4
* CC(C)/N=c1\cc2n(-c3ccc(Cl)cc3)c3ccccc3nc-2cc1Nc1ccc(Cl)cc1 [CLOFAZIMINE] | < 4
* CC=CC1=C(C(=O)O)N2C(=O)[C@@H](NC(=O)[C@H](N)c3ccc(O)cc3)[C@H]2SC1 [CEFPROZIL] | >= 4

----------
Some compounds, each annotated with its measured Alkaline Phosphatase Increase - Index Value.
tested on: Hepatotoxicity; experiment: FDA HLAED, alkaline phosphatase increase; conditions: human
quantity-kind: Alkaline Phosphatase Increase - Index Value

• CC(=O)O[C@H]1C[C@@H]2CC[C@@H]3[C@H](CC[C@@]4(C)[C@H]3C[C@H](N3CC[N+](C)(C)CC3)[C@@H]4OC(C)=O)[C@@]2(C)C[C@@H]1N1CC[N+](C)(C)CC1.[Br-].[Br-] [PIPECURONIUM BROMIDE] = 0
• CC[C@@]1(O)C(=O)OCc2c1cc1n(c2=O)Cc2cc3c(CN(C)C)c(O)ccc3nc2-1 [TOPOTECAN] = 0
• CNCCC=C1c2ccccc2CCc2ccccc21 [NORTRIPTYLINE] = 15.4
• Clc1ccccc1CN1CCc2sccc2C1 [TICLOPIDINE] = 0
• CC1(C)NC(=O)N(c2ccc([N+](=O)[O-])c(C(F)(F)F)c2)C1=O [NILUTAMIDE] = 0
• COc1cc(N)c(Cl)cc1C(=O)NC1CCN(CCCOc2ccc(F)cc2)CC1OC (stereo unspecified) [CISAPRIDE] = 0.2
• C[C@H]1COc2c(N3CCN(C)CC3)c(F)cc3c(=O)c(C(=O)O)cn1c23.C[C@H]1COc2c(N3CCN(C)CC3)c(F)cc3c(=O)c(C(=O)O)cn1c23.O [LEVOFLOXACIN] = 0
• C[C@@H]1C[C@H]2[C@H]3[C@H]([C@@H](O)C[C@]2(C)[C@@]1(O)C(=O)CO)[C@@]1(C)C=CC(=O)C=C1C[C@H]3Cl [ALCLOMETASONE] = 0
• O=C(O)[C@@H](S)[C@@H](S)C(=O)O = 175.4
• CN(C)CC/C=C1/c2ccccc2COc2ccc(CC(=O)O)cc21 [OLOPATADINE] = 0
• CCOc1ccc2ccccc2c1C(=O)N[C@@H]1C(=O)N2[C@@H]1SC(C)(C)[C@@H]2C(=O)O [NAFCILLIN] = 10.9
• Cc1ncc2n1-c1ccc(Cl)cc1C(c1ccccc1F)=NC2 [MIDAZOLAM] = 0.2
• Cc1nnc2n1-c1ccc(Cl)cc1C(c1ccccc1Cl)=NC2 [TRIAZOLAM] = 0.4
• C[C@@H]1CN([C@H]2CC[C@](C#N)(c3ccc(F)cc3)CC2)CC[C@]1(C(=O)O)c1ccccc1 [LEVOCABASTINE] = 0
• O=c1[nH]cnc2c1ncn2[C@H]1CC[C@@H](CO)O1 [DIDANOSINE] = 14.5

----------
system: Hepatotoxicity; experiment: FDA HLAED, alkaline phosphatase increase; conditions: human
quantity-kind: Alkaline Phosphatase Increase - Number of Reports

• CCCCC[C@H](O)/C=C/[C@H]1[C@H](O)CC(=O)[C@@H]1CCCCCCC(=O)O [ALPROSTADIL] = < 4
• CCC1=C[C@@H]2CN(C1)Cc1c([nH]c3ccccc13)[C@@](C(=O)OC)(c1cc3c(cc1OC)N(C)[C@H]1[C@@](O)(C(=O)OC)[C@H](OC(C)=O)[C@]4(CC)C=CCN5CC[C@]31[C@@H]54)C2 [VINORELBINE] = < 4
• CNCC(O)c1ccc(OC(=O)C(C)(C)C)c(OC(=O)C(C)(C)C)c1 (stereo not given) [DIPIVEFRIN] = < 4
• COc1ccc2c(c1)c(CC(=O)O)c(C)n2C(=O)c1ccc(Cl)cc1 [INDOMETHACIN] = >= 4
• CCCCCCCCCCCCCCCCCC(=O)O.CC[C@H]1OC(=O)[C@H](C)[C@@H](O[C@H]2C[C@@](C)(OC)[C@@H](O)[C@H](C)O2)[C@H](C)[C@@H](O[C@@H]2O[C@H](C)C[C@H](N(C)C)[C@H]2OC(C)=O)[C@](C)(O)C[C@@H](C)C(=O)[C@H](C)[C@@H](O)[C@]1(C)O [ERYTHROMYCIN ACISTRATE] = >= 4

----------
test system: Hepatotoxicity; experiment: FDA HLAED, serum glutamic pyruvic transaminase (SGPT) increase; settings: human
quantity-kind: SGPT Increase - Index Value

- Nc1ncnc2c1ncn2[C@@H]1O[C@H](CO)[C@@H](O)[C@H]1O: 0
- CN1CCN(C2=Nc3cc(Cl)ccc3Nc3ccccc32)CC1: 42.9
- CC(C)(C)NCC(O)c1ccc(O)c(CO)n1 (stereo not drawn): 0
- CC(C)(C(=O)O)c1ccc(C(O)CCCN2CCC(C(O)(c3ccccc3)c3ccccc3)CC2)cc1 (stereo not drawn) [FEXOFENADINE]: 0
- CCN(CC)CCNC(=O)c1ccc(N)cc1 [PROCAINAMIDE]: 0
- CO/N=C(\C(=O)N[C@@H]1C(=O)N2C(C(=O)OC(C)OC(C)=O)=C(COC(N)=O)CS[C@H]12)c1ccco1 (stereo partly drawn): 0
- O=C(O)[C@@H](S)[C@@H](S)C(=O)O: 131.6
- CC(C(=O)O)c1cccc(C(=O)c2ccccc2)c1 (stereo not drawn): 0.4
- C=C1/C(=C\C=C2/CCC[C@]3(C)[C@@H]([C@H](C)CCCC(C)(C)O)CC[C@@H]23)C[C@@H](O)C[C@@H]1O: 0
- C[C@@H]1CN(c2c(F)c(N)c3c(=O)c(C(=O)O)cn(C4CC4)c3c2F)C[C@H](C)N1: 0
- C=C1c2c(Cl)ccc(O)c2C(=O)C2=C(O)[C@]3(O)C(=O)C(C(N)=O)=C(O)[C@@H](N(C)C)[C@@H]3[C@@H](O)[C@H]12: 0
- CC(S)C(=O)NCC(=O)O (stereo not drawn): 0
- Brc1c(NC2=NCCN2)ccc2nccnc12: 0
- CC(C)(C)NC(=O)[C@H]1CC[C@H]2[C@@H]3CC[C@H]4NC(=O)C=C[C@]4(C)[C@H]3CC[C@]12C [FINASTERIDE]: 2.7
- C[C@H]1C[C@H]2[C@@H]3C[C@H](F)C4=CC(=O)C=C[C@]4(C)[C@@]3(F)[C@@H](O)C[C@]2(C)[C@@]1(O)C(=O)CCl: 0
- C[N+](C)(C)CCO.Cn1c(=O)c2[n-]cnc2n(C)c1=O: 0
- CC(=O)CCCCn1c(=O)c2c(ncn2C)n(C)c1=O: 0.3
- CCCCC(=O)N(Cc1ccc(-c2ccccc2-c2nnn[nH]2)cc1)[C@H](C(=O)O)C(C)C: 7.6
- Clc1ccc2c(c1)C(c1ccccc1)=NCc1nncn1-2: 0.8
- CC1=C(/C=C/C(C)=C/C=C/C(C)=C\C(=O)O)C(C)(C)CCC1: 63.7
- Clc1ccccc1CN1CCc2sccc2C1: 0
- CC(CN(C)C)CN1c2ccccc2CCc2ccccc21 (stereo not drawn): 0
- COCC1=C(C(=O)O)N2C(=O)[C@@H](NC(=O)/C(=N\OC)c3csc(N)n3)[C@H]2SC1: 0.8
- NCCCC(O)(P(=O)(O)O)P(=O)(O)O: 1.4
- CC[N+](C)(C)Cc1ccccc1Br.Cc1ccc(S(=O)(=O)[O-])cc1 [BRETYLIUM TOSYLATE]: 0
- Clc1cccc(Cl)c1N=C1NCCN1: 7.6
- CCOC(=O)N1CCC(=C2c3ccc(Cl)cc3CCc3cccnc32)CC1: 0.6
- CC(NC(C)(C)C)C(=O)c1cccc(Cl)c1 (stereo not drawn): 0
- CC1(C)S[C@@H]2[C@H](NC(=O)[C@H](N)c3ccc(O)cc3)C(=O)N2[C@H]1C(=O)O: 0
- CC(C)(C)NC[C@H](O)COc1cccc2c1CCCC2=O: 0
- CC[C@H]1OC(=O)[C@H](C)[C@@H](O[C@H]2C[C@@](C)(OC)[C@@H](O)[C@H](C)O2)[C@H](C)[C@@H](O[C@@H]2O[C@H](C)C[C@H](N(C)C)[C@H]2O)[C@](C)(O)C[C@@H](C)C(=O)[C@H](C)[C@@H](O)[C@]1(C)O: 8.5

Where these numbers come from: ChEMBL document CHEMBL1697781
